assay: antimalarial activity against Dd2 strain (AID 2302);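 also: 0% = DMSO untreated growth and 100% = chloroquine plus artemisinin killed control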; conditions: P. falciparum Dd2 in RBCs, LDH growth readout, 72 h; at 2 µM; hits give high values
READOUT_KIND: growth inhibition (%)
Only the number, expressed in %, is required.

Some compounds with known growth inhibition results, for comparison:
COc1cc(Nc2nccc(N3CCC(NC(=O)c4cccc(NC(C)=O)c4)C3)n2)cc(OC)c1OC (stereo not drawn) = 68
CON=Cc1ccn(-c2ccc(O)c3c2C[C@H]2C[C@H]4[C@H](N(C)C)C(=O)C(C(N)=O)=C(O)[C@@]4(O)C(=O)C2=C3O)c1 = 70
O=C(Nc1cccc(-c2nn3ncccc3c2-c2ccnc(Nc3cccnc3)n2)c1)c1c(F)cccc1F = 70
CCOC(=O)c1sc(C(C)Nc2ccccc2)nc1-c1ccccc1 (stereo not drawn) = 91
CN(C)CCCNc1ncnc2c1[nH]c1ccc(Br)cc12 = 19

Tell me measured growth inhibition for `Cc1nnsc1C(=O)Nc1cccc(-c2ccc(-c3nc4ccccc4[nH]3)cc2)c1` please.
58

Tell me measured growth inhibition for `CC(C)c1sc(N2CCN(C)CC2)nc1C(=O)Nc1ccc(F)cc1C(F)(F)F` please.
99

Tell me measured growth inhibition for `COc1ccc(N2CCN(CCCCNCc3ccc(NC(=O)c4cc(Cl)cc(Cl)c4)cc3)CC2)c(OC)c1` please.
99

Tell me measured growth inhibition for `Cc1cc(NCc2ccccc2)nc2cc(O)ccc12` please.
80

Tell me measured growth inhibition for `COc1cc(CNCCCNc2nc3ncccc3[nH]2)c2[nH]cc(Br)c2c1` please.
3

* * *

Below is a list of entries, each paired with its recorded inhibition value.
assay: HepG2 cytotoxicity, primary screen, cytotoxicity control for P. falciparum antimalarial project, cell-based, ATP luminescence (AID 2303); conditions: HepG2 viability, 24-48 h, at 10 µM, hits give high values;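 also: 0% = DMSO wells and 100% = digitonin-killed cells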
Only the number, expressed in %, is required.

Some compounds with known inhibition results, for comparison:
Cc1cccc(C)c1N1CCN(C2CCC(NC(=O)c3cc4ccccc4[nH]3)CC2)CC1 (stereo not given) = 31
O=C(CNC1=NCCN1)Nc1ccc(NC(=O)Nc2ccc(NC(=O)CNC3=NCCN3)cc2)cc1 = -5

Tell me measured inhibition for `CCCCCCCNCc1c(O)ccc2c(CNCCCCCCC)c(O)ccc12` please.
29

Tell me measured inhibition for `c1ccc2cc3c(Nc4ccc(N5CCCCCC5)cc4)ccnc3cc2c1` please.
10

Tell me measured inhibition for `O=C(C=Cc1ccc(Cl)c(Cl)c1)NCCCCCN1CCC(c2[nH]nc3ccccc23)CC1` please.
32

* * *

Below is a list of entries, each paired with its recorded growth inhibition value.
assay: antimalarial activity against Dd2 strain (AID 2302);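 also: 0% = DMSO untreated growth and 100% = chloroquine plus artemisinin killed control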; details: P. falciparum Dd2 in RBCs, LDH growth readout, 72 h; at 2 µM; hits give high values
Only the number, expressed in %, is required.

Some compounds with known growth inhibition results, for comparison:
COc1cc(Cc2cnc(N)nc2N)cc(OCCCCCCN2C(=O)c3ccccc3C2=O)c1OC = 3
O=C(NOCCOc1ccccc1)c1ccccc1 = 0
NC(=Nc1nc(-c2ccccn2)cc2ccccc12)c1cccc(Cl)c1 = 99
N=C(N)c1ccc(-c2cc(-c3cccc(C(=N)N)c3)on2)cc1 = 45

Tell me measured growth inhibition for `Cn1cncc1C(=O)Nc1cccc(-c2ccc(-c3nc4ccc(F)cc4[nH]3)cc2)c1` please.
31

Tell me measured growth inhibition for `COc1c(C)cc(I)cc1CNCCCNc1cc(=O)c2ccccc2[nH]1` please.
-2

Tell me measured growth inhibition for `O=C(Nc1ccc([N+](=O)[O-])cc1)Nc1nc2ccc(Cl)cc2s1` please.
33

Tell me measured growth inhibition for `CCOC(=O)c1c(CSc2ccccc2)oc2cc(CN(C)C)c(O)c(Cl)c12` please.
70

Tell me measured growth inhibition for C=CCOC(=O)N1CCC(CNCc2ccc(-c3cccc(-c4nc5ccc(F)cc5[nH]4)c3)cc2)C1 (stereo not drawn) please.
99

Tell me measured growth inhibition for `Cn1nc(C(F)(F)F)c(-c2ccc(F)cc2)c1NC(=O)Nc1ccc(F)cc1` please.
99

* * *

Below is a list of entries, each paired with its recorded growth inhibition value.
assay: antimalarial activity against Dd2 strain (AID 2302);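 also: 0% = DMSO untreated growth and 100% = chloroquine plus artemisinin killed control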; details: P. falciparum Dd2 in RBCs, LDH growth readout, 72 h; at 2 µM; hits give high values
Only the number, expressed in %, is required.

Some compounds with known growth inhibition results, for comparison:
O=C(C=Cc1ccc(Cl)c(Cl)c1)NCCCCCN1CCCC(CCCNC(=O)c2ccc3c(c2)OCO3)C1 (stereo unspecified) = 4
CCOc1ccc2c(NN=Cc3ccc(OC)c(OC)c3)cc(C)nc2c1 = 58
COc1ccc2nccc([C@@H](O)CN3CCC(NC(=O)C(c4ccsc4)N4CCN(c5ccccc5)CC4)CC3)c2c1 (stereo partly specified) = 17
COc1ccc2ncn(-c3ccc(C(N)=O)c(OCc4ccccc4C(F)(F)F)c3)c2c1 = 100
Cc1ccc(CNc2ccc3ncc(-c4cccc(C(=O)NCCN(C)C)c4)n3n2)c(C)c1 = 78
Nc1c2c(nc3ccc(C(=O)Nc4ccccc4)cc13)CCCC2 = 78
O=C(Nc1ccc(-c2nc3ccccc3[nH]2)cc1)c1cncc(Br)c1 = 49
CCOc1cc(C(=O)NC2CCN(Cc3ccccc3)CC2)ccc1-c1nc2cc(Cl)c(Cl)cc2[nH]1 = 99
O=C(Cc1ccc(F)cc1)NC1CCN(c2ccnc3cc(Cl)ccc23)C1 (stereo unspecified) = 85
O=C(NC(=Cc1cccc([N+](=O)[O-])c1)c1nc2ccccc2[nH]1)c1cccc(Br)c1 = 88

Tell me measured growth inhibition for `N#Cc1cccc(NC(=O)Nc2cccc(OC3CCN(Cc4ccccc4)CC3)c2)c1` please.
48

Tell me measured growth inhibition for `COc1ccc(CN2CCC(CNCC(c3ccccc3)c3ccccc3)CC2)cc1` please.
95

Tell me measured growth inhibition for O=C(Nc1cc(C(F)(F)F)cc(C(F)(F)F)c1)NC(CCCN1CCC2(CC1)OCc1ccccc12)c1ccc(Cl)c(Cl)c1 (stereo unspecified) please.
87

Tell me measured growth inhibition for `CCOC(=O)CCCOc1c(OC)cc(Cc2cnc(N)nc2N)cc1OC` please.
7

Tell me measured growth inhibition for CC(C)(C)CCOC(=O)N1CCc2c(cc(O)c(O)c2Cl)C(c2ccc(O)cc2)C1 (stereo unspecified) please.
95

Tell me measured growth inhibition for `c1ccc2cc3c(Nc4ccc(N5CCCCC5)cc4)ccnc3cc2c1` please.
36

* * *

assay: inhibition of 3D7 malaria parasite growth – strain 3D7 (AID 2306);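 also: 0% = DMSO wells and 100% = chloroquine plus artemisinin control wells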; conditions: P. falciparum 3D7 erythrocytic growth, LDH absorbance, 72 h; at 2 µM; hits give high values
READOUT_KIND: growth inhibition (%)
Only the number, expressed in %, is required.

Some molecules with known growth inhibition results, for comparison:
O=c1cc(NCCCNCc2sc(Br)nc2Br)[nH]c2ccccc12 = 92
O=C(/C=C/c1ccc(-c2nc3ccc(Cl)cc3[nH]2)cc1)NCc1cccc(F)c1 = 99
N#CN1CC[C@@H](NS(=O)(=O)Cc2ccc(Cl)c(Cl)c2)C1 = 94

Tell me measured growth inhibition for `O=C(N[C@@H](CC1CCCCC1)C(=O)NCc1cccc2ccccc12)c1ccc(O)c(-c2ccc(Cl)c(Cl)c2)c1` please.
97

Tell me measured growth inhibition for `Cc1cc2c(cc1C(F)(F)F)N(C(=O)Nc1cnc(OCCN(C)C)c(C(F)(F)F)c1)CC2` please.
88

Tell me measured growth inhibition for `CCN(CC)CCCNC(=O)/C(=C/C=C/c1cc2cc(Cl)c(Cl)cc2[nH]1)OC` please.
84

Tell me measured growth inhibition for `CN1CCC(Oc2cc(NC(=O)Nc3ccc(-c4ccncc4)c(Cl)c3)ccc2Cl)CC1` please.
99

Tell me measured growth inhibition for `Nc1nccc2ccc(-c3cccnc3)cc12` please.
97

Tell me measured growth inhibition for NC1CCN(Cc2cccc(-c3ccc(-c4nc5ccccc5[nH]4)s3)c2)C1 (centres undefined) please.
100

* * *

experiment: antimalarial activity against Dd2 strain (AID 2302);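 also: 0% = DMSO untreated growth and 100% = chloroquine plus artemisinin killed control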; settings: P. falciparum Dd2 in RBCs, LDH growth readout, 72 h; at 2 µM; hits give high values
Would you please tag the item Condition met when its growth inhibition is 60% or above, and Condition not met when it is below?

// known answers, use as guide
Oc1ccc(CCNc2nc(NCc3ccccc3-c3ccc(C(F)(F)F)cc3)nc(N3CCCNCC3)n2)cc1 = Condition not met
CCCCN(CCCC)C(=NCCCCCCN=C(NC(N)=NCc1ccc(Cl)c(Cl)c1)N(CCCC)CCCC)NC(N)=NCc1ccc(Cl)c(Cl)c1 = Condition met
CCc1nc(N)nc(N)c1-c1ccccc1 = Condition not met
CC(C)CNCc1cccc(-c2cccc(CN(CCCN3CCN(C)CC3)C(=O)/C=C/c3ccccc3)c2)c1 = Condition met
CCC(CC(C)C(=O)O)=C(c1ccccc1)c1ccccc1 (stereo unspecified) = Condition not met
O=C(NC1CC1)c1ccc(N2CCC(Cc3ccccc3)CC2)nc1 = Condition met

Does the compound `CCN1CCN(Cc2ccc3nc(-c4cc(C)n(Cc5cc(Cl)ccc5OCc5ccccc5)n4)[nH]c3c2)CC1` have recorded growth inhibition that is 60% or more?
Condition met

Does the compound O=C(Nc1ccc(C(F)(F)F)cc1)c1cccc(S(=O)(=O)NCC2CCCN(CC3CCCCC3)C2)c1 (stereo unspecified) have recorded growth inhibition that is 60% or more?
Condition not met
